Cited source for all entries: patent US11357779B2

# Protocol: Plasma concentration versus time of Compound I and metabolite Compound III in patients dosed QD or BID with Form B of Compound II plus fulvestrant
# Format: in vivo, human
# Condition details: human, plasma, oral, 650 mg, Cohort 5, 650 mg QD of Form B, Day 29, 1.0 h; read-out: Compound I Concentration, Min
Measured endpoint: concentration at 1 h (µg/mL)
Write it as a number; the unit µg/mL goes unstated.

Q: Return reported concentration at 1 h; argument: CC(C)N1CCN(c2ccc(Nc3ncc4cc5n(c4n3)C3(CCCCC3)CNC5=O)nc2)CC1
A: 0.0121

---

# Protocol: Noncompartmental pharmacokinetic parameters (Cmax, Tmax, AUC, Racc) in QD and BID cohorts of Form B
# Format: in vivo, human
# Condition details: human, plasma, oral, 500 mg, Compound III; 500 mg QD of Form B; Cohort 4; Day 29; read-out: AUClast (Median)
# Description: Analysis of plasma concentration versus time data for calculation of standard pharmacokinetic (PK) parameters following oral administration was conducted using Phoenix WinNonlin version 6.3 using actual blood sampling times. […]
Measured endpoint: AUC(0-t)

Q: Return reported AUC(0-t); argument: O=C1NCC2(CCCCC2)n2c1cc1cnc(Nc3ccc(N4CCNCC4)cn3)nc12
A: 69.6 ng·h/mL
